Molecular target: HDAC complex / nucleosome remodeling and deacetylase (NuRD) complex in SNU-398 nuclear extracts
Test: fluorescence polarization competition; unlabeled peptide displaces FITC-labeled wild type peptide from complexes in SNU-398 nuclear extracts
measurement_label: pIC50
Formally, pIC50 is defined as -log10 of the concentration c, with c in mol/L.

Q. Entry under review: MSRRKQAKPQHI [wild type 12-AA SALL4 peptide (…), unlabeled] . Reported pIC50?
A. 5.30
